Listing of recorded AIRE transcriptional activation functional score by entry.
B1: library; numbered along this chain (parent)
chain: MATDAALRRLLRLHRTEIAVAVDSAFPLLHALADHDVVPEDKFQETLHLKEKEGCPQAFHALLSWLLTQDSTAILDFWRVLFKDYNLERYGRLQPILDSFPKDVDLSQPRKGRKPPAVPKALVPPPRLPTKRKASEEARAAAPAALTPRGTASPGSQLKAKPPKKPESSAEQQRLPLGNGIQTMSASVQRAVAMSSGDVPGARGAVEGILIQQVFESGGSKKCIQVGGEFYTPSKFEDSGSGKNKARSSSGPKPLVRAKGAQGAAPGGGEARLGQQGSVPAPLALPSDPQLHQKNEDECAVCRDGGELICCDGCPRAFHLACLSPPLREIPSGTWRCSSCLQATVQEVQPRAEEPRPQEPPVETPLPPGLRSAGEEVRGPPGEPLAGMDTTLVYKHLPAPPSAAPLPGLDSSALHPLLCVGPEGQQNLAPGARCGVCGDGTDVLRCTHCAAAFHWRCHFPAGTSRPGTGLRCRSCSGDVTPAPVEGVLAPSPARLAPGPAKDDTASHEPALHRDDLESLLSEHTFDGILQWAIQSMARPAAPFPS

Variants of: B1
test details: AIRE transcriptional activation functional score (insulin promoter-GFP; nonsense median 0, synonymous median 1) (normalised score); higher = higher AIRE activity (more reporter activation)
conditions: with insulin promoter-GFP reporter in HEK293
Just the number, please, no unit after it.

Record excerpt, results attached:
A451Q ... -0.927
A121V ... 0.67
D98Q ... 2.07
R494S ... 0.361
R316H ... 1.36
A21G ... 0.0519

Request: What value of AIRE transcriptional activation functional score has been recorded for this entry: V279W
Response: 1.4

Request: What value of AIRE transcriptional activation functional score has been recorded for this entry: A540Y
Response: 0.912

Request: What value of AIRE transcriptional activation functional score has been recorded for this entry: L93M
Response: -0.0479

Ref: the supplement of paper PMC12667976
